Below, each of the binders is paired with its reported Trimeric HA Binding: RLU value.
subject_of_test: recombinant homotrimeric HA A/Hong Kong/1073/99 H9N2 (Influenza A virus A/Hong Kong/1073/99 (H9N2))
measurement_protocol: protein microarray, purified IgG, trimeric HA
protocol_conditions: remark: other sources report otherwise
Expressed in RLU, but write only the number.

Q: What does the record list as Trimeric HA Binding: RLU for TCN-546 (5089_L08) (antibody, V domains shown) VH: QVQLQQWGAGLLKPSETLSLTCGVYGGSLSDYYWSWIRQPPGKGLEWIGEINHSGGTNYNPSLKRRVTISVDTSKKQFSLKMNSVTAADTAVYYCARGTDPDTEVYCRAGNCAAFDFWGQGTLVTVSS VL: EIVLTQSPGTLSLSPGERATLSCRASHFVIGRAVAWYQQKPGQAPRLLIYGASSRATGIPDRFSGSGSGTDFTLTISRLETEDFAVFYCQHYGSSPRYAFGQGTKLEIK ?
Ans: 505

Q: Next binder up: TCN-554 (5277_M05) (antibody, V domains shown) VH: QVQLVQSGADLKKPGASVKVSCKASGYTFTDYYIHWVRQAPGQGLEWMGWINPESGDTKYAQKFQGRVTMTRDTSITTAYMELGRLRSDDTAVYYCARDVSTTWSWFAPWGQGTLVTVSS VL: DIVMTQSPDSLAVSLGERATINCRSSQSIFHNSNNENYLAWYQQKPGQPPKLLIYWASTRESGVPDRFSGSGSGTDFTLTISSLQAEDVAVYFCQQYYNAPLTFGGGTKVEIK
Ans: 539

API: the following record is the query input.
Q: What does the record list as Trimeric HA Binding: RLU for TCN-558 (5248_H10b) (antibody, V domains shown) VH: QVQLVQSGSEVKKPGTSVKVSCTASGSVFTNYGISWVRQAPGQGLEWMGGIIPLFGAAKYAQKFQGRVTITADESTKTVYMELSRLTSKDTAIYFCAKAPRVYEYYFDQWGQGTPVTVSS VL: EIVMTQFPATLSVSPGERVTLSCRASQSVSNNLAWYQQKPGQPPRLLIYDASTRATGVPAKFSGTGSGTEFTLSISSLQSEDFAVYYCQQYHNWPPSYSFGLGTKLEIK ?
Ans: 4380

# credit: patent US20150086555A1
